Molecular target: T1, integrin αvβ3, purified from human placenta (human, UniProt P06756 31-1048; P05106 27-788)
T1 construct: mature; Native heterodimer, immobilized on ELISA plates or on the BIAcore chip; biotinylated in capture lift and capture ELISA screens; also called αvβ3 receptor; vitronectin receptor
T1 sequence (P06756 31-1048, form in doubt, chain 1 of 2): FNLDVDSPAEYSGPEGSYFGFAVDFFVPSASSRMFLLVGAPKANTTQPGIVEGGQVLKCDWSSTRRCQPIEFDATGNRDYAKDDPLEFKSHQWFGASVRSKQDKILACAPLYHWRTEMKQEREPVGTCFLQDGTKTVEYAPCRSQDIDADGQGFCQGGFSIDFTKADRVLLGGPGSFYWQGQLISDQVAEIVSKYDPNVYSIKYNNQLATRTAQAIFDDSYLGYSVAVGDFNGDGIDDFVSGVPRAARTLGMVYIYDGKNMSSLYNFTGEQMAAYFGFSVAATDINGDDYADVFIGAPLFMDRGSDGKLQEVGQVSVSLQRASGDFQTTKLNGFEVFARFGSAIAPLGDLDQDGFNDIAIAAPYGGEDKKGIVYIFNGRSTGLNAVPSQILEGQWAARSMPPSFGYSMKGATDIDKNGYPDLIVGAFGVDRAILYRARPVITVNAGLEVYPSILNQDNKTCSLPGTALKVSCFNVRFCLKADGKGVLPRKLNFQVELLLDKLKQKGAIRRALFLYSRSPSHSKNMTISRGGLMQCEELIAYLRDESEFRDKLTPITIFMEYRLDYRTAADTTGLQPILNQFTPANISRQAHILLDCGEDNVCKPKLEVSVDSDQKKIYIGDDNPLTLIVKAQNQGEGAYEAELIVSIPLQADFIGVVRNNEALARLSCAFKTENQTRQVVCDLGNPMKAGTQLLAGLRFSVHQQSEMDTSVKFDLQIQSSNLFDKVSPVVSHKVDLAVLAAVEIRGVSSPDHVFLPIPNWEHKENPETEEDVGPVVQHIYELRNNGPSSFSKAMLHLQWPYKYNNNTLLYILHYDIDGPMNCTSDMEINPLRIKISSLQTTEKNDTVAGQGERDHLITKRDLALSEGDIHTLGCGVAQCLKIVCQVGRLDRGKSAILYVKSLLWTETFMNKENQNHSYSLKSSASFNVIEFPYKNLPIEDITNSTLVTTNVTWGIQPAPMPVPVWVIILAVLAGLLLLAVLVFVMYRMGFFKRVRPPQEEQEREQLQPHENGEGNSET
T1 sequence (P05106 27-788, form in doubt, chain 2 of 2): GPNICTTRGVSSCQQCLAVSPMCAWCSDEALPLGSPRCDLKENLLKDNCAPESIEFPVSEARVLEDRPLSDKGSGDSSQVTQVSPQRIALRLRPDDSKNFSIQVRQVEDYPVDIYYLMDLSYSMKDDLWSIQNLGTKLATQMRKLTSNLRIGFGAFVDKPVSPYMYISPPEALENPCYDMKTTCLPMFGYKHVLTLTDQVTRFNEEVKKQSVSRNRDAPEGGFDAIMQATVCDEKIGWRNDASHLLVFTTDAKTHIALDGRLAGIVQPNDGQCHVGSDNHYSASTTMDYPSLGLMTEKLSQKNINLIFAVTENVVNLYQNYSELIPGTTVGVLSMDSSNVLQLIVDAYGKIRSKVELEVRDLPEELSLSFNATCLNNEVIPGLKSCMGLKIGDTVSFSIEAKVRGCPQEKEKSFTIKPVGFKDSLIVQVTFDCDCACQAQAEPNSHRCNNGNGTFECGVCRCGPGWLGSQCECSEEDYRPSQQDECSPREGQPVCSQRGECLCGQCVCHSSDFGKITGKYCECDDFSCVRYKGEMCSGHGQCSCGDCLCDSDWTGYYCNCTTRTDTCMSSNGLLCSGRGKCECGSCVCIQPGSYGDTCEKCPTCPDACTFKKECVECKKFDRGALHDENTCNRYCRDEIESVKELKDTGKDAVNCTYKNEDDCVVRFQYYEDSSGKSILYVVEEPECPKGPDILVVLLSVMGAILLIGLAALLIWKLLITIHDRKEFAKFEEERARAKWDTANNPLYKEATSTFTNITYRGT
Assay: SPR (BIAcore), purified Fab over immobilized αvβ3
propertyLabel: kon (M⁻¹ s⁻¹)

{"binder": "LM609 grafted antibody combinatorial clone C119 (Fab, V domains shown, Fab) VH: QVQLVESGGGVVQPGRSLRLSCAASGFTFSSYDMSWVRQAPGKGLEWVAKVSSGGGSTYYPDTVQGRFTISRDNSKNTLYLQMNSLRAEDTAVYYCARHNYGSFASWGQGTTVTVSS VL: EIVLTQSPATLSLSPGERATLSCQASQSISNHLHWYQQRPGQAPRLLIRYRSQSISGIPARFSGSGSGTDFTLTISSLEPEDFAVYYCQQSNSWPHTFGGGTKVEIK", "endpointValue": 215000}
{"binder": "LM609 grafted antibody combinatorial clone C59 (Fab, V domains shown, Fab) VH: QVQLVESGGGVVQPGRSLRLSCAASGFTFSSYDMSWVRQAPGKGLEWVAKVSSGGGSTYYPDTVQGRFTISRDNSKNTLYLQMNSLRAEDTAVYYCARHNYGSFADWGQGTTVTVSS VL: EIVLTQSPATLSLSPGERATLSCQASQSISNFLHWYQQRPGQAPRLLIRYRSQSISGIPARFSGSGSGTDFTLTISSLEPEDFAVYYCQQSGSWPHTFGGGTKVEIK", "endpointValue": 265000}
{"binder": "LM609 grafted antibody combinatorial clone 8F9 (Fab, V domains shown, Fab) VH: QVQLVESGGGVVQPGRSLRLSCAASGFTFSSYDMSWVRQAPGKGLEWVAKVSSGGGSTYYPDTVQGRFTISRDNSKNTLYLQMNSLRAEDTAVYYCARHNHGSFASWGQGTTVTVSS VL: EIVLTQSPATLSLSPGERATLSCQASQSISNHLHWYQQRPGQAPRLLIRYRSQSISGIPARFSGSGSGTDFTLTISSLEPEDFAVYYCQQSGSWPLTFGGGTKVEIK", "endpointValue": 475000}
